The measurements presented in this section are drawn from patent US20250179143A1.

assay: DSF thermal stability of pMHC-I molecules; format: physicochemical; conditions: HLA-A*02:01 refolded with the named peptide
Endpoint: Tm
Enter the number, and then the unit.

The following substances have reported results that may help.
{"Substance": "KILGFVF(BF)V [BetaA02]", "Result": "53 °C"}
{"Substance": "KILGFVFJV (photolabile J residue; VARIANT 8 J=3-amino-3-(2-nitrophenyl)-propionic acid) [PhotoA02, reference compound]", "Result": "52 °C"}
{"Substance": "KILGFVβFTV [βF-P7]", "Result": "63 °C"}

Would you kindly look at the next entry?
-- ask Entry KIβFGFVFTV [βF-P3] : reported Tm = ?
-- reply 58 °C

###

target: chTAPBPR/HLA-B*08:01 complex (Homo sapiens, UniProt P01889, A93T/A95T/D138N/E176V/E187T/K202T/Q94N/R180D/S35A/V36M/Y33D/Y91F); experiment: EMSA of peptide-receptive complex with peptides; conditions: 10-fold molar excess peptide
Endpoint: pMHC-I bands upon incubation of the complex with the peptide

{"Chain sequence": "MLYQHLLPL [T1D95]", "Result": "discrete pMHC-I bands"}
{"Chain sequence": "ALWMRLLPL [T1D30]", "Result": "discrete pMHC-I bands"}
{"Chain sequence": "FLRGRAYGL [EBV]", "Result": "discrete pMHC-I bands"}
{"Chain sequence": "AIFQSSMTK [HIV]", "Result": "not"}
